Listing of recorded Ki by entry.
Target: HCV NS3-NS4A protease (tNS3 with KK4A) (Hepatitis C virus genotype 1a, UniProt P27958)
Sequence (P27958 1027-1208): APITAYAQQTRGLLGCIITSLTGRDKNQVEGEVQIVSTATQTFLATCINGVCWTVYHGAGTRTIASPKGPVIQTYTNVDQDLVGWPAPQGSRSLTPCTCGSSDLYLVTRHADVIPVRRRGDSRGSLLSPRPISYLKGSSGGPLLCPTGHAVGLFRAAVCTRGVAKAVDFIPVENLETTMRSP
Test: HCV Ki assay (HPLC microbore separation of 5AB substrate and products)
Format: biochemical
quantity.name: Ki

CCC[C@H](NC(=O)[C@@H]1C[C@@H]2CCCC[C@@H]2N1C(=O)[C@@H](NC(=O)[C@@H](NC(=O)c1cnccn1)C1CCCCC1)C(C)(C)C)C(=O)C(=O)N[C@@H]1CCOC1 [Compound 47a] ... 500 to 1000 nM
CCC[C@H](NC(=O)[C@@H]1C[C@@H]2CCCC[C@@H]2N1C(=O)[C@@H](NC(=O)[C@@H](NC(=O)c1ccc2cccnc2n1)C1CCCCC1)C(C)(C)C)C(=O)C(=O)NC1CC1 [Compound 36a] ... < 500 nM
CCC[C@H](NC(=O)[C@@H]1C[C@@H]2CCCC[C@@H]2N1C(=O)[C@@H](NC(=O)[C@@H](NC(=O)c1[nH]c(C)c(C(C)=O)c1C)C1CCCCC1)C(C)(C)C)C(=O)C(=O)NC1CC1 [Compound 29a] ... < 500 nM
